Molecular target: isolated recombinant JAK2 kinase domain (Homo sapiens (Human))
Sequence (O60674 849-1124): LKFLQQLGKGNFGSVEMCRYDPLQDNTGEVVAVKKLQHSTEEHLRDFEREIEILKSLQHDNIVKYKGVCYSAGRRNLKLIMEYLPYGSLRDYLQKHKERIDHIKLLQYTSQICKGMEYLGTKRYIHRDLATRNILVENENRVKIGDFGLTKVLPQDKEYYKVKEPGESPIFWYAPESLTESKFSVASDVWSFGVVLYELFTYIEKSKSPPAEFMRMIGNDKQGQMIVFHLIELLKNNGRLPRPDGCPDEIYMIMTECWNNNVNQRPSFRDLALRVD
Assay: JAK2 enzyme assay (Caliper LabChip, peptide phosphorylation)
Conditions: 25 μM ATP
pKi: −log10 of the molar value. Structures can show the parent of a compound that is named as a salt.
Value kind: pKi

Consider the following illustrative entries.
| Molecule | pKi |
| --- | --- |
| O=C(Cn1cc(NC(=O)c2cnn3cccnc23)c(-c2cc(Cl)ccc2OC(F)F)n1)NCC1(CO)CC1 | 9.26 |
| CCCCOc1ccc(CN(C)C2CCN(C(=O)Cn3cc(NC(=O)c4cnn5cccnc45)c(-c4cc(Cl)ccc4OC(F)F)n3)CC2)cc1 | 8.61 |
| CCNC1CCN(C(=O)Cn2cc(NC(=O)c3c(N)nn4cccnc34)c(-c3cc(Cl)ccc3OC(F)F)n2)CC1 | 9.21 |
| O=C(Nc1cn(CC(=O)N2C[C@H]3CN(CCCN4CCOC4=O)C[C@H]3C2)nc1-c1cc(Cl)ccc1OC(F)F)c1cnn2cccnc12 | 9.30 |
| O=C(Nc1cn(CC(=O)N2CCC(NCCc3ccc(Cl)cc3)CC2)nc1-c1cc(Cl)ccc1OC(F)F)c1cnn2cccnc12 | 8.69 |
| CCN1C[C@@H]2CN(C(=O)Cn3cc(NC(=O)c4cnn5cccnc45)c(-c4cc(Cl)ccc4OC(F)F)n3)C[C@@H]2C1 [Example 5, hydrochloride] | 9.11 |
| CN(Cc1ccccc1)C1CCN(C(=O)Cn2cc(NC(=O)c3cnn4cccnc34)c(-c3cc(Cl)ccc3OC(F)F)n2)CC1 | 8.74 |
| COCCCN1C[C@@H]2CN(C(=O)Cn3cc(NC(=O)c4cnn5cccnc45)c(-c4cc(Cl)ccc4OC(F)F)n3)C[C@@H]2C1 | 9.11 |

P: N#CC1(NC2CCN(C(=O)Cn3cc(NC(=O)c4cnn5cccnc45)c(-c4cc(Cl)ccc4OC(F)F)n3)CC2)CC1
Q: CN(C1CCN(C(=O)Cn2cc(NC(=O)c3cnn4cccnc34)c(-c3cc(Cl)ccc3OC(F)F)n2)CC1)C(Cc1ccccc1)C(F)(F)F (stereo not shown)
R: CN1CC[C@@H]2CN(C(=O)Cn3cc(NC(=O)c4cnn5cccnc45)c(-c4cc(Cl)ccc4OC(F)F)n3)CC[C@@H]21
S: COCCN1CCN(C(=O)Cn2cc(NC(=O)c3c(N)nn4cccnc34)c(-c3cc(Cl)ccc3OC(F)F)n2)CC1
T: CC(=O)N1CCC(CN2CCC(n3cc(NC(=O)c4c(N)nn5cccnc45)c(-c4cc(Cl)ccc4OC(F)F)n3)CC2)CC1
Query: Please give the order of these molecules when sorted by pKi, largest value leading. Dear reader, please state the labels in the requested order.
Response: T, S, P, R, Q
(T: 9.89, S: 9.66, P: 9.12, R: 8.83, Q: 8.08)
